biological target: Prothrombin (Homo sapiens); experiment: Inhibition of human thrombin using Tosyl-Gly-Pro-Arg-p-nitroaniline as substrate at 1 x 10^-3 M by chromogenic substrate hydrolysis assay
Activity calls are given as the source filed them. The rule behind the calls is not given here.
ENDPOINT: inhibition

- COMPOUND: "O=S(=O)([O-])OC[C@H]1O[C@@H](Oc2cc(/C=C/c3ccc(OS(=O)(=O)[O-])cc3)cc(OS(=O)(=O)[O-])c2)[C@H](OS(=O)(=O)[O-])[C@@H](OS(=O)(=O)[O-])[C@@H]1OS(=O)(=O)[O-].[Na+].[Na+].[Na+].[Na+].[Na+].[Na+]"
  OBSERVED_RESULT: "inactive"
- COMPOUND: "Cc1cc(=O)oc2cc(O[C@@H]3O[C@H](COS(=O)(=O)[O-])[C@@H](OS(=O)(=O)[O-])[C@H](OS(=O)(=O)[O-])[C@H]3OS(=O)(=O)[O-])ccc12.[Na+].[Na+].[Na+].[Na+]"
  OBSERVED_RESULT: "inactive"
- COMPOUND: "O=C1O[C@H]([C@H](COS(=O)(=O)[O-])OS(=O)(=O)[O-])C(OS(=O)(=O)[O-])=C1OS(=O)(=O)[O-].[Na+].[Na+].[Na+].[Na+] [ASCORBIC ACID PERSULFATE]"
  OBSERVED_RESULT: "inactive"
